Where do these numbers come from? They come from paper PMC11395219.

- ASSAYED_TARGET: Vitamin D receptor (VDR) (Homo sapiens)
- Sequence (P11473 118-427 limits assumed): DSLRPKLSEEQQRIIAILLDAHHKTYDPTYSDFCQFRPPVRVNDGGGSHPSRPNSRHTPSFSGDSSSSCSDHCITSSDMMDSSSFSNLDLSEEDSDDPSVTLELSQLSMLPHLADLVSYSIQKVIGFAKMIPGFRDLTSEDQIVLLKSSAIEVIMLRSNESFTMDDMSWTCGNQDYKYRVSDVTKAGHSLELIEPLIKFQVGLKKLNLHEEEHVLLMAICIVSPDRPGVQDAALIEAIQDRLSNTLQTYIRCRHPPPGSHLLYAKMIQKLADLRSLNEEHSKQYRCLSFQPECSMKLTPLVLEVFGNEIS
MEASUREMENT_TYPE: Kd (µM)
Note: unit µM is implicit; provide only the numeric part.

Answer with reported Kd of O=c1cc(-c2ccc(O)cc2)oc2c([C@@H]3O[C@H](CO)[C@@H](O)[C@H](O)[C@H]3O)c(O)cc(O)c12 [vitexin]
34.7
